- Tested on: Staphylococcus aureus
- ASSAY_TEXT: Antimicrobial activity against Staphylococcus aureus ATCC 13709 after 20 to 24 hrs
- Format: functional
ENDPOINT: MIC (µg/mL)
Unit µg/mL implied. Number only.

SMILES_ENTRY	STUDY_SYSTEM	UNITS_LABEL	MIC
CN(C)CCO[C@H]1[C@H](O[C@@H]2[C@@H](O)[C@H](N)C[C@H](N)[C@H]2O[C@H]2O[C@H](CO)[C@@H](O)[C@H](O)[C@H]2N)O[C@H](CO)[C@H]1O[C@H]1O[C@@H](CN)[C@@H](O)[C@H](O)[C@H]1N	Staphylococcus aureus	µg/mL	6
NC[C@@H]1O[C@H](O[C@H]2[C@@H](OCCNCCc3ccc(-c4ccccc4)cc3)[C@H](O[C@@H]3[C@@H](O)[C@H](N)C[C@H](N)[C@H]3O[C@H]3O[C@H](CO)[C@@H](O)[C@H](O)[C@H]3N)O[C@@H]2CO)[C@H](N)[C@@H](O)[C@@H]1O	Staphylococcus aureus	µg/mL	5
NC[C@@H]1O[C@H](O[C@H]2[C@@H](OCCNc3ccccn3)[C@H](O[C@@H]3[C@@H](O)[C@H](N)C[C@H](N)[C@H]3O[C@H]3O[C@H](CO)[C@@H](O)[C@H](O)[C@H]3N)O[C@@H]2CO)[C@H](N)[C@@H](O)[C@@H]1O	Staphylococcus aureus	µg/mL	2

Let us examine a further case.
Query string: Provide MIC value for the following compound: `NCCCNCCO[C@H]1[C@H](O[C@@H]2[C@@H](O)[C@H](N)C[C@H](N)[C@H]2O[C@H]2O[C@H](CO)[C@@H](O)[C@H](O)[C@H]2N)O[C@H](CO)[C@H]1O[C@H]1O[C@@H](CN)[C@@H](O)[C@H](O)[C@H]1N`
Result string: 3
